- protocol_details: Tissue distribution in tumour-bearing nude mice
- Assay type: in vivo
- experimental_setup: nude, mouse, plasma, oral, 10 mg/kg
measured_parameter: concentration at 21 day (ng/mL)
Number only, in ng/mL; omit the unit.

Task: Using the record for CNC(=O)c1cccc2cc(Oc3ccnc4cc(OCC5(N)CC5)c(OC)cc34)ccc12 , report its concentration at 21 day.
Result: 7.8

====

- target_of_assay: EPH-B2 (Homo sapiens, UniProt P29323)
- Sequence (P29323 621-884 limits assumed): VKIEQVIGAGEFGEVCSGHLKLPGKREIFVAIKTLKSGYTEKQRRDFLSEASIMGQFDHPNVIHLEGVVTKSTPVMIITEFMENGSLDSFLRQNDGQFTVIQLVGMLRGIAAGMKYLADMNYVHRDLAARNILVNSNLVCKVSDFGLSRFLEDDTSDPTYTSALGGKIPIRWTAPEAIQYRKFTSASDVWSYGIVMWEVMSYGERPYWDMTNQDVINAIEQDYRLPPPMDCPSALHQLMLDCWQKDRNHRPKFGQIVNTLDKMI
measured_parameter: pIC50
Recall that pIC50 is obtained by taking minus log10 of the concentration measured in molar.

Task: Record CNC(=O)c1cccc2cc(Oc3ccnc4cc(OCC5(N)CC5)c(OC)cc34)ccc12 [AL3810] : what is its pIC50 with EPH-B2 (Homo sapiens, UniProt P29323)?
Result: 6.04
